Ref: patent US20250064941A1

Hi there, I'd appreciate the recorded Kd for every entry that follows.
target: human Siglec-2/CD22 protein (Homo sapiens, UniProt P20273); assay: SPR binding affinity to human CD22; conditions: steady-state analysis

Request: Field request: Kd | item: C#CCOCCCCCCO[C@]1(C(=O)O)C[C@H](O)[C@@H](NC(=O)CO)[C@H]([C@H](O)[C@H](O)CNC(=O)Cc2ccc(C#N)cc2)O1 [Compound 162]
Response: 1000 to 10000 nM

Request: Now the same for C#CCCOc1ccc(CS[C@]2(C(=O)O)C[C@H](O)[C@@H](NC(=O)CO)[C@H]([C@H](O)[C@H](O)CNC(=O)Cc3ccc(Cl)cc3)O2)cc1 [Compound 122]
Response: < 1000 nM

Request: Now the same for C#CCCOc1ccc(CO[C@]2(C(=O)O)C[C@H](O)[C@@H](NC(=O)CO)[C@H]([C@H](O)[C@H](O)CNC(=O)Cc3cccc(Cl)c3)O2)cc1 [Compound 123]
Response: < 1000 nM

Request: Now the same for C#CCOCCOCCO[C@]1(C(=O)NS(C)(=O)=O)C[C@H](O)[C@@H](NC(=O)CO)[C@H]([C@H](O)[C@H](O)CNC(=O)Cc2ccc(-c3ccc(O)cc3)cc2)O1 [Compound 65]
Response: > 10000 nM

Request: Now the same for O=C(O)CCOCCOCCOCCOCCNc1c(NCCCCCCO[C@]2(C(=O)O)C[C@H](O)[C@@H](NC(=O)CO)[C@H]([C@H](O)[C@H](O)CNC(=O)Cc3ccc(Cl)cc3)O2)c(=O)c1=O [Compound 154]
Response: < 1000 nM

###

Target: human Siglec-2/CD22 protein (Homo sapiens)
Sequence (P20273 20-847): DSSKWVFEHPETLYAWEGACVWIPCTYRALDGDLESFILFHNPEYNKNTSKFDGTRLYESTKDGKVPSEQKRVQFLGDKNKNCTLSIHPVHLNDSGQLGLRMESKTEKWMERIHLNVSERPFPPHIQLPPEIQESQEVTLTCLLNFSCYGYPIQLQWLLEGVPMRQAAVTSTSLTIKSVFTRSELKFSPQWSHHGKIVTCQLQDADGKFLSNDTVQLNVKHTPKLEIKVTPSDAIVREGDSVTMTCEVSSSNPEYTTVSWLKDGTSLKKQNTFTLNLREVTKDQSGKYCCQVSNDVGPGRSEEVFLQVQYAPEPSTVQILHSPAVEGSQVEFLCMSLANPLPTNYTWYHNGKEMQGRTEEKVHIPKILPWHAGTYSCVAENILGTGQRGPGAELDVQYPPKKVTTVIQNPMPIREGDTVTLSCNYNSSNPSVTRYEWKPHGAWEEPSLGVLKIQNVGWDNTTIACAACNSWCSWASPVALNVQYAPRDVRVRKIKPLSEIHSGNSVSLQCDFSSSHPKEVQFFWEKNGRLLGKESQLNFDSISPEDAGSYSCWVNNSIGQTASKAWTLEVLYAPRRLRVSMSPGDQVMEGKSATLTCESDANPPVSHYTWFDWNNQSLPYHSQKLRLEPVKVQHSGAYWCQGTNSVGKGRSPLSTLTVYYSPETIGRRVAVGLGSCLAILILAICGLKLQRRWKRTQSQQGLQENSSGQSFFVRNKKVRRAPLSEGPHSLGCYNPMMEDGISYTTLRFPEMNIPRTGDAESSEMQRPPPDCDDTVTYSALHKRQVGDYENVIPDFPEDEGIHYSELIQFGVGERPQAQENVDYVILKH
Test: SPR binding affinity to human CD22
Settings: steady-state analysis
pKd: −log10 of the molar value.
reported-metric: pKd

Request: Field request: pKd | item: C#CCOCCOCCO[C@]1(C(=O)O)C[C@H](O)[C@@H](NC(=O)NCC(F)(F)F)[C@H]([C@H](O)[C@H](O)CNC(=O)Cc2ccc(-c3ccc(O)cc3)cc2)O1 [Compound 199]
Response: < 5.00

Request: Now the same for C#CCOCCNC(=O)NCCCCCCO[C@]1(C(=O)O)C[C@H](O)[C@@H](NC(=O)CO)[C@H]([C@H](O)[C@H](O)CNC(=O)Cc2ccc(Cl)cc2)O1 [Compound 218]
Response: > 6.00

Request: Now the same for C#CCOCCOCCO[C@]1(C(=O)O)C[C@H](O)[C@@H](NC(=O)CO)[C@H]([C@H](O)[C@H](O)CNC(=O)Cc2ccc(-c3ccncc3)cc2)O1 [Compound 72]
Response: 5.00 to 6.00

Request: Now the same for C#CCOCCCCCCO[C@]1(C(=O)O)C[C@H](O)[C@@H](NC(=O)CO)[C@H]([C@H](O)[C@H](O)CNC(=O)Cc2ccc(C(C)C)cc2)O1 [Cpd. 159]
Response: > 6.00

Request: Now the same for C#CCOCCOCCNc1c(NCCCCCCO[C@]2(C(=O)O)C[C@H](O)[C@@H](NC(=O)CO)[C@H]([C@H](O)[C@H](O)CNC(=O)c3ccccc3Cl)O2)c(=O)c1=O [Compound 229]
Response: 5.00 to 6.00

Request: Now the same for C#CCCOc1ccc(CO[C@]2(C(=O)O)C[C@H](O)[C@@H](NC(=O)CO)[C@H]([C@H](O)[C@H](O)CNC(=O)Cc3ccc4[nH]c(=O)[nH]c4c3)O2)cc1 [Compound 7]
Response: 5.00 to 6.00

Request: Now the same for O=C(O)CCCCCCCO[C@]1(C(=O)O)C[C@H](O)[C@@H](NC(=O)CO)[C@H]([C@H](O)[C@H](O)CNC(=O)Cc2ccc(Cl)cc2)O1 [Compound 97]
Response: > 6.00

Request: Now the same for C#CCOCCOCCO[C@]1(C(=O)O)C[C@H](O)[C@@H](NC(=O)CO)[C@H]([C@H](O)[C@H](O)CNC(=O)Cc2ccc(-c3ccccc3)c(O)c2)O1 [Compound 66]
Response: 5.00 to 6.00

Request: Now the same for C#CCOc1ccc(CO[C@]2(C(=O)O)C[C@H](O)[C@@H](NC(=O)CO)[C@H]([C@H](O)[C@H](O)CNC(=O)Cc3ccc(-c4ccc(O)cc4)cc3Cl)O2)cc1 [Compound 52]
Response: > 6.00

Request: Now the same for C#CCOP(=O)(O)OCCCCCCO[C@]1(C(=O)O)C[C@H](O)[C@@H](NC(=O)CO)[C@H]([C@H](O)[C@H](O)CNC(=O)Cc2ccc(Cl)cc2)O1 [Compound 105]
Response: > 6.00

Request: Now the same for C#CCOCCOCCO[C@]1(C(=O)O)C[C@H](O)[C@@H](NC(=O)CO)[C@H]([C@H](O)[C@H](O)CNC(=O)Cc2ccc(Cl)cc2)O1 [Compound 126]
Response: 5.00 to 6.00
